Where these numbers come from: PubChem BioAssay AID330

- System: P388 leukemia ip, CD2F1 mice, survival T/C
- measurement-description: NCI In Vivo Anticancer Drug Screen. Data for tumor model P388 Leukemia (intraperitoneal) in CD2F1 (CDF1) mice
- condition-label: endpoint: median survival time; dose: 200.0 mg/kg/injection; schedule: Q01DX009 (ip); vehicle: saline with Tween-80; higher = longer survival
Toxic doses and inconclusive results are not listed.
Each entry below lists one item and its recorded T/C value.
value-kind: T/C

molecule | experimental-target | value-kind | endpoint-value
COC(=S)NC(=O)c1ccc(F)cc1 | P388 leukemia ip, CD2F1 mice, survival T/C | T/C | 117 % of control
CC(C)(C)N1CCC1C(=O)O (stereo not given) | P388 leukemia ip, CD2F1 mice, survival T/C | T/C | 88 % of control
N#Cc1cnn(C(N)=O)c1N | P388 leukemia ip, CD2F1 mice, survival T/C | T/C | 110 % of control
CNc1ccccc1C(=O)NN=C1c2ccccc2-c2ccccc21 | P388 leukemia ip, CD2F1 mice, survival T/C | T/C | 99 % of control
O=C(Nc1ccc(F)cc1)N1c2ccccc2SC12CCCC2 | P388 leukemia ip, CD2F1 mice, survival T/C | T/C | 93 % of control
